// reported glycan array binding signal (z-score) for each item listed
# target desc: Glc(a1-4)Glc(a1-4)Glc(a1-4)Glc
# test summary: glycan array binding signal (z-score within array); higher = stronger binding
# experimental context: glycan notation: IUPAC condensed, linker removed
The full list was thinned out, with the strongest signals kept by preference.
# print the numeric value only

INSERT INTO measurements (binder, value) VALUES
  ('Na-CTL-1 (Necator americanus) (protein) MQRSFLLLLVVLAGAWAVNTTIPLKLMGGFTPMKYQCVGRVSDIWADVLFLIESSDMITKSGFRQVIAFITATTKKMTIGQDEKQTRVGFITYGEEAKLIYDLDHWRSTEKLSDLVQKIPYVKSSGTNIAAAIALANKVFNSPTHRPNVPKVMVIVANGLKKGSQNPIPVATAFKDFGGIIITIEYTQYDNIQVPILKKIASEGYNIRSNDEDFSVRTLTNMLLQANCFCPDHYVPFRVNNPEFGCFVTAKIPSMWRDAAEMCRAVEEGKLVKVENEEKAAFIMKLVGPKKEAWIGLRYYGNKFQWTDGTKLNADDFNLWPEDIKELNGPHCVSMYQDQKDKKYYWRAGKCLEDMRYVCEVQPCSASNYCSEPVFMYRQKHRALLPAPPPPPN', -0.045);

Consider now this further binder.
(Q) Fill in the blank: the reported glycan array binding signal (z-score) of Epa19 (Candida glabrata) (protein) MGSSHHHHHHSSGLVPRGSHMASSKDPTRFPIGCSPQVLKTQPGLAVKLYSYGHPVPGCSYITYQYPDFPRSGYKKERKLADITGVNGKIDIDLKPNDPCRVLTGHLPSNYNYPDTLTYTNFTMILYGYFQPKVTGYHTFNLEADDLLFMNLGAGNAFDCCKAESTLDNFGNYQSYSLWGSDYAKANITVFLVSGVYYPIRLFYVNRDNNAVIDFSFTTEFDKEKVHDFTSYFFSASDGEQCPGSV is ____.
(A) 0.084
